# system_name: BCRP (Homo sapiens, UniProt Q9UNQ0)
# Construct: expressed in transfected cells; host or cells: PLB985 human myeloid leukemia cells stably expressing BCRP (gift of B. Sarkadi and K. Nemet, Budapest)
# Sequence (Q9UNQ0 whole entry): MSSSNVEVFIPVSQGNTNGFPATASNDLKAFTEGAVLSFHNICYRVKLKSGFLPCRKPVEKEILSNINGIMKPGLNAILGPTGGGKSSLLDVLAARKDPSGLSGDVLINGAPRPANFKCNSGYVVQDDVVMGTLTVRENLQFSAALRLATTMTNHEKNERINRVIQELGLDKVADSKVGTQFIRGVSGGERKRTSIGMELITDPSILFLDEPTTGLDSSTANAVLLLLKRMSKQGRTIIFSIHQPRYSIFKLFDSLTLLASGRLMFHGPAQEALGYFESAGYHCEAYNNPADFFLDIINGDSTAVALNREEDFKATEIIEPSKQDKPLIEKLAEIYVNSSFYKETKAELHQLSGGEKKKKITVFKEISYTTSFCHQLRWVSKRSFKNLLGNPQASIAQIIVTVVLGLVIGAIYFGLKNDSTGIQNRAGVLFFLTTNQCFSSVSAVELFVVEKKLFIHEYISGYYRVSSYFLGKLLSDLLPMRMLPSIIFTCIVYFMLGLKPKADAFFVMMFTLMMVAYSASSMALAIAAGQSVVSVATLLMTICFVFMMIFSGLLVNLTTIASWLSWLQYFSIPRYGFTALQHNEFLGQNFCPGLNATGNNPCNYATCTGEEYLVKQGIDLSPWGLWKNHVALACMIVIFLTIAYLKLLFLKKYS
# assay_details: BCRP inhibition: steady-state mitoxantrone accumulation in BCRP-expressing PLB985 cells (flow cytometry)
# Type: cell-based
# recorded_conditions: IC50 below 10 μM considered active
value_type: in vitro classification as BCRP inhibitor

compound | reported
CC(=O)c1ccccc1OCC(O)CN1CC(=O)N2CCCC2C1=O (centres unmarked) | noninhibitors
O=C(CCc1ccccc1)c1ccccc1OCCNC(=O)C1CCCN1 (centres unmarked) | inhibitors
O=C(CCc1ccccc1)c1ccccc1OCC(O)CN1CC(=O)N2CCCC2C1=O (centres unmarked) | inhibitors
CC(CF)NCC(O)COc1ccccc1C(=O)CCc1ccccc1 (centres unmarked) | inhibitors
CC(NCC(O)COc1ccccc1C(=O)CCc1ccccc1)C(F)F (centres unmarked) | inhibitors
COc1ccc(C(=O)CCc2ccccc2)c(OCC(O)CN2CC(=O)N3CCCC3C2=O)c1 (centres unmarked) | inhibitors
COc1ccc(C(=O)CCc2ccccc2)c(OCC(O)CNC(=O)C2CCCN2)c1 (centres unmarked) | inhibitors
CC(=O)c1ccccc1OCCNC(=O)C1CCCN1 (centres unmarked) | noninhibitors
COc1ccc(C(=O)CCc2ccccc2)c(OCCN2CC(=O)N3CCCC3C2=O)c1 (centres unmarked) | inhibitors
COc1ccc(C(=O)CCc2ccccc2)c(OCCNC(=O)C2CCCN2)c1 (centres unmarked) | inhibitors
CC(=O)c1ccccc1OCCN1CC(=O)N2CCCC2C1=O (centres unmarked) | noninhibitors
CC(=O)c1ccccc1OCC(O)CNC(=O)C1CCCN1 (centres unmarked) | noninhibitors

###

# system_name: P-gp (Homo sapiens, UniProt P08183)
# Construct: was obtained by stepwise selection of CCRF‐CEM in vincristine‐containing medium; endogenous in cells; host or cells: CCRF VCR1000 (vincristine-selected subline of CCRF-CEM human T-lymphoblasts; gift of V. Gekeler)
# Sequence (P08183 whole entry): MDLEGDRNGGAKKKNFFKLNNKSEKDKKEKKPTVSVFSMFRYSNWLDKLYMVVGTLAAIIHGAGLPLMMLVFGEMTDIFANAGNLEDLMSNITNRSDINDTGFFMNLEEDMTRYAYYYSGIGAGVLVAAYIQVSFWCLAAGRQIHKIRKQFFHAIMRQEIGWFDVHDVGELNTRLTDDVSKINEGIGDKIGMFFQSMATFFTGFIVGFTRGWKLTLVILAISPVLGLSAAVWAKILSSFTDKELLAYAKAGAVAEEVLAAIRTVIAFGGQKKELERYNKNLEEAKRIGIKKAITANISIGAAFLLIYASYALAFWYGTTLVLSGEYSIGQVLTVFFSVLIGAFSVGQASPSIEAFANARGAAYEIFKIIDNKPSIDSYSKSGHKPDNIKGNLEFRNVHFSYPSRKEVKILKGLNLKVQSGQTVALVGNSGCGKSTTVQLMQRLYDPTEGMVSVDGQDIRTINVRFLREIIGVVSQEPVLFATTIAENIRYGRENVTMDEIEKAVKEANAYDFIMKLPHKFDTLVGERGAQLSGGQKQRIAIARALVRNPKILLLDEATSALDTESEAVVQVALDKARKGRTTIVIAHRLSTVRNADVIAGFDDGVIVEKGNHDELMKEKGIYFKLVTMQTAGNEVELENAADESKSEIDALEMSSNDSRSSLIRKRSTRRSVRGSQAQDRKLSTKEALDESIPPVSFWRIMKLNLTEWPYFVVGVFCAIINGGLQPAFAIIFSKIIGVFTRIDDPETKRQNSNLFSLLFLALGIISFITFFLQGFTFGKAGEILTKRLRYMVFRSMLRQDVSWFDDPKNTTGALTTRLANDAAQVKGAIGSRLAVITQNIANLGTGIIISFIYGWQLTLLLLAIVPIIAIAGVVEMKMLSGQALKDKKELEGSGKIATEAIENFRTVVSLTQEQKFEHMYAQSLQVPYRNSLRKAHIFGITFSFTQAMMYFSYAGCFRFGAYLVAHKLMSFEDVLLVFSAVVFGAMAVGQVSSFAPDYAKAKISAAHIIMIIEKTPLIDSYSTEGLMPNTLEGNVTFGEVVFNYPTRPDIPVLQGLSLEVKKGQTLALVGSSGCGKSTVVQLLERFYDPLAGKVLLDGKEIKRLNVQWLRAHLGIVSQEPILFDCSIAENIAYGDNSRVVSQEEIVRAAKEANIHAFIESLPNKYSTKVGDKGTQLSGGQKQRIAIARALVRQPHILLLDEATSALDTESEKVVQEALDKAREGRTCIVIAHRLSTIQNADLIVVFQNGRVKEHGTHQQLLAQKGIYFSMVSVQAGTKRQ
# assay_details: P-gp inhibition: steady-state daunorubicin accumulation in P-gp-overexpressing CCRF VCR1000 cells (flow cytometry)
# Format: cell-based
# recorded_conditions: IC50 below 10 μM considered active
value_type: in vitro classification as P-gp inhibitor

molecule | reported
CC(NCC(O)COc1ccccc1C(=O)CCc1ccccc1)C(F)F (centres unmarked) | inhibitors
O=C(CCc1ccccc1)c1ccccc1OCCNC(=O)C1CCCN1 (centres unmarked) | inhibitors
CC(=O)c1ccccc1OCCN1CC(=O)N2CCCC2C1=O (centres unmarked) | noninhibitors
CC(=O)c1ccccc1OCCNC(=O)C1CCCN1 (centres unmarked) | noninhibitors
COc1ccc(C(=O)CCc2ccccc2)c(OCCNC(=O)C2CCCN2)c1 (centres unmarked) | inhibitors
CC(=O)c1ccccc1OCC(O)CNC(=O)C1CCCN1 (centres unmarked) | noninhibitors
CC(CF)NCC(O)COc1ccccc1C(=O)CCc1ccccc1 (centres unmarked) | inhibitors

###

# system_name: P-gp (Homo sapiens, UniProt P08183)
# Construct: was obtained by stepwise selection of CCRF‐CEM in vincristine‐containing medium; endogenous in cells; host or cells: CCRF VCR1000 (vincristine-selected subline of CCRF-CEM human T-lymphoblasts; gift of V. Gekeler)
# assay_details: P-gp inhibition: steady-state daunorubicin accumulation in P-gp-overexpressing CCRF VCR1000 cells (flow cytometry)
# Assay type: cell-based
# recorded_conditions: Hill coefficient of IC50 measurement, mean ± SD of n experiments
// Hill coefficient P-gp lookup, one value per entry
value_type: Hill coefficient P-gp

molecule | reported
COc1ccc(C(=O)CCc2ccccc2)c(OCC(O)CNC(=O)C2CCCN2)c1 (centres unmarked) | 1.3
O=C(CCc1ccccc1)c1ccccc1OCCN1CC(=O)N2CCCC2C1=O (centres unmarked) | 1.8
COc1ccc(C(=O)CCc2ccccc2)c(OCCN2CC(=O)N3CCCC3C2=O)c1 (centres unmarked) | 1.5
O=C(CCc1ccccc1)c1ccccc1OCC(O)CN1CC(=O)N2CCCC2C1=O (centres unmarked) | 2.6
CC(=O)c1ccccc1OCCNC(=O)C1CCCN1 (centres unmarked) | 2.2
CC(CF)NCC(O)COc1ccccc1C(=O)CCc1ccccc1 (centres unmarked) | 1.3
COc1ccc(C(=O)CCc2ccccc2)c(OCC(O)CN2CC(=O)N3CCCC3C2=O)c1 (centres unmarked) | 1.5
O=C(CCc1ccccc1)c1ccccc1OCCNC(=O)C1CCCN1 (centres unmarked) | 1.6
